Biological target: T1, SH2-SH3B fragment of Vav1 (669-845) (mouse, UniProt P27870 669-845)
T1 sequence (looked up): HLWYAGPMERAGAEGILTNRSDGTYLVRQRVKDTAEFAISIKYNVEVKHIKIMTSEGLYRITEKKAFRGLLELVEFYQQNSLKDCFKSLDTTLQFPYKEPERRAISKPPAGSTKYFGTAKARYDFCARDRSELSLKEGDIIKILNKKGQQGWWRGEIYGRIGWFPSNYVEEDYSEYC
Assay: ITC
Where no end group is shown, it is not given here. [ ]: non-standard residue; d: D form. pY = N[C@@H](Cc1ccc(OP(=O)(O)O)cc1)C(=O)O
RECORDED_ENDPOINT: Kd (nM)
One number for each entry, in nM.

// sample EDD[pY]ESPND [SLP76 pY112 peptide] , its Kd was 1320
